Values compiled from ChEMBL document CHEMBL3259605.

Could you please report measured bioavailability for the items listed next?
Method: Oral bioavailability in rat at 2 mg/kg
Type: ADME, organism-based
Cond: in vivo
One number for each entry, in %.

Worked cases, bioavailability given:
COc1cc(-c2ccc(COc3cccc([C@@H](CC(=O)O)C4CC4)c3F)cc2[C@@H]2CCCC2(C)C)c(F)cn1 :: 98
COc1ccc(F)c(-c2ccc(COc3cccc([C@@H](CC(=O)O)C4CC4)c3)cc2[C@@H]2CCCC2(C)C)c1 :: 34

Here are 4 compounds. What values of bioavailability were reported for them?
1. COc1cc(-c2ccc(COc3ccc4c(c3)[C@@](C)(CC(=O)O)CC4)cc2[C@H](OC)C(C)(C)C)c(F)cn1
2. COc1cc(-c2ccc(COc3ccc4c(c3)[C@@](C)(CC(=O)O)CC4)cc2[C@@H]2CCCC2(C)C)c(F)cn1
3. CC[C@H](CC(=O)O)c1ccnc(OCc2ccc(-c3cc(OC)ncc3F)c([C@@H]3CCCC3(C)C)c2)c1
4. COc1cc(-c2ccc(COc3cc([C@@H](CC(=O)O)C4CC4)ccn3)cc2[C@H](OC)C(C)(C)C)c(F)cn1

result:
1: 21; 2: 10; 3: 83; 4: 54

----------
Method: Half life in rat at 0.5 mg/kg, iv
Type: ADME, organism-based
Design: dose 0.5 mg/kg, route intravenous
Cond: in vivo
Quantity Kind: half-life (h)
Answers are plain numbers, in h.

COc1cc(-c2ccc(COc3ccc4c(c3)[C@@](C)(CC(=O)O)CC4)cc2[C@H](OC)C(C)(C)C)c(F)cn1 :: 4
CCO[C@@H](c1cc(COc2cccc([C@@H](CC(=O)O)C3CC3)c2)ccc1-c1cc(OC)ccc1F)C(C)(C)C :: 3.9
COc1cc(-c2ccc(COc3cccc([C@@H](CC(=O)O)C4CC4)c3F)cc2[C@@H]2CCCC2(C)C)c(F)cn1 :: 4.6
COc1cc(-c2ccc(COc3ccc4c(c3)[C@@](C)(CC(=O)O)CC4)cc2[C@@H]2CCCC2(C)C)c(F)cn1 :: 3.7
CC[C@H](CC(=O)O)c1ccnc(OCc2ccc(-c3cc(OC)ncc3F)c([C@@H]3CCCC3(C)C)c2)c1 :: 8.2

Here are 2 compounds. What values of half-life were reported for them?
1. COc1ccc(F)c(-c2ccc(COc3cccc([C@@H](CC(=O)O)C4CC4)c3)cc2CC(C)(C)C)c1
2. COc1cc(-c2ccc(COc3cc([C@@H](CC(=O)O)C4CC4)ccn3)cc2[C@@H]2CCCC2(C)C)c(F)cn1

result:
[1.2, 9.7]

Item: COc1cc(-c2ccc(COc3cc4c(cn3)CC[C@]43C[C@H]3C(=O)O)cc2[C@H](OC)C(C)(C)C)c(F)cn1 | half-life: 1.2

----------
System Name: UniProt O14842
Sequence (O14842 whole entry): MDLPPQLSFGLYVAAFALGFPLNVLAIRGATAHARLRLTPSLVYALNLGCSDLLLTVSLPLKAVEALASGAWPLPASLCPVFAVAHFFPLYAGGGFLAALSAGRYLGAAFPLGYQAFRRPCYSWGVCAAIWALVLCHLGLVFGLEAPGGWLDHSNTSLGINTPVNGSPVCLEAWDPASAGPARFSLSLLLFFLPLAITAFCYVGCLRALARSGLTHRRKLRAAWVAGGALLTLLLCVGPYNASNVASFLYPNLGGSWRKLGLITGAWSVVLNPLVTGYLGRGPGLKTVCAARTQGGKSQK
Method: Agonist activity at GPR40 (unknown origin) expressed in CHO cells assessed as luminescence for 20 seconds interval by aequorin assay in presence of 0.01% human serum albumin
Assay type: cell-based
Could you please report measured EC50 for the items listed next?
Numbers only, in nM.

CCC[C@H](CC(=O)O)c1cccc(OCc2ccc(-c3cccc(OC)n3)c(C(C)(C)C)c2)c1 :: 3700
COc1cc(-c2ccc(COc3cccc([C@@H](CC(=O)O)C4CC4)c3F)cc2[C@@H]2CCCC2(C)C)c(F)cn1 :: 93
COc1cc(-c2ccc(COc3cc4c(cn3)CC[C@]43C[C@H]3C(=O)O)cc2[C@@H]2CCCC2(C)C)c(F)cn1 :: 249
COc1ccc(F)c(-c2ccc(COc3cccc([C@@H](CC(=O)O)C4CC4)c3)cc2CC(C)(C)C)c1 :: 88
COc1ccc(F)c(-c2ccc(COc3cccc([C@@H](CC(=O)O)C4CC4)c3)cc2[C@H](F)C(C)(C)C)c1 :: 105

API: the following record is the query input.
Item: COc1cc(-c2ccc(COc3cc([C@@H](CC(=O)O)C4CC4)ccn3)cc2[C@@H]2CCCC2(C)C)c(F)cn1 | EC50: 108
